STUDY SYSTEM: EP4 (Homo sapiens (Human))
Sequence (P35408 whole entry): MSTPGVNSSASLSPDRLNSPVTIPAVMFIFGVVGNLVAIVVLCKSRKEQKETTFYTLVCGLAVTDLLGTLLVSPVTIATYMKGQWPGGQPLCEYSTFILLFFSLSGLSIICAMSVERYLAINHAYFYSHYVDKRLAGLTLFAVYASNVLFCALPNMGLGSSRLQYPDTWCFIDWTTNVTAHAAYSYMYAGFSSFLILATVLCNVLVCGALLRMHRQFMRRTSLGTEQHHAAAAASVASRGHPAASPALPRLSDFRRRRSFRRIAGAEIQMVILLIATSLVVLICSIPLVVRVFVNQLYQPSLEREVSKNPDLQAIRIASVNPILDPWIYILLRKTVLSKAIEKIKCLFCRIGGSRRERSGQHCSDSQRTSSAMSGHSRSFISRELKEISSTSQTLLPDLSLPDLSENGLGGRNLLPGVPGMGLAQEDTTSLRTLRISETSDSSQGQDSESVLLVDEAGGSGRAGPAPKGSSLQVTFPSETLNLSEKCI
PROTOCOL DETAILS: hEP4 cAMP assay (BT549 breast cancer cells, HTRF cAMP)
Assay type: cell-based
SETUP CONDITIONS: antagonistic activity, PGE2 6 nM
Excerpt: Human tumor cell lines expressing endogenously either EP4 or EP2 are used and cAMP accumulation in cells upon PGE2 stimulation is monitored. […] As a detection method for cAMP the HTRF (homogeneous time resolved fluorescence) Cisbio kit (HTRF cAMP dynamic 2 kit 20'000 tests Cisbio Cat. #62AM4PEC) was used, which is based on a competitive immunoassay using a Cryptate-labeled anti-cAMP antibody and d2-labeled cAMP. […]
pIC50: −log10 of the molar value.
MEASURED ENDPOINT: pIC50

# example entries with known answers
CCOc1cc(-c2cc(NCCc3cc4ccsc4cc3C)ncn2)ccc1CC(=O)O [Ex 290]
6.28
CCOc1cc(-c2cc(NCCc3cc4c(cc3OC)OCCO4)ncn2)ccc1C(=O)O [Ex 286]
6.29
CCOc1cc(-c2cc(NCCc3ccc4scc(C)c4c3)ncn2)ccc1CC(=O)O [Ex 297]
6.23
COc1cc(-c2cc(NCCc3cc4cccnc4cc3F)ncn2)sc1C1(O)COC1 [Ex 283]
6.30
CCOc1cc(-c2cc(NCCc3ccc4sccc4c3)ncn2)sc1-c1noc(=O)[nH]1 [Example 340]
7.96

a: CCOc1cc(-c2cc(NCCc3cc4c(cc3C#N)OCCO4)ncn2)sc1C(=O)O [Ex 6]
b: CSc1cc(-c2cc(NCCc3cc(Cl)c4sccc4c3)ncn2)ccc1C(=O)O [Example 360]
c: CCOc1cc(-c2cc(NCCc3ccc4ccccc4c3)ncn2)sc1C(=O)O [Ex 36]
d: CCOc1cc2c(cc1CCNc1cc(-c3ccc(C(=O)O)c(OC4CCC4)c3)ncn1)OCCO2 [Ex 196]
Task: Hello, I need these entries ordered by pIC50, highest reading first. Thanks! Dear reader, please state the labels in the requested order.
Output: a, c, b, d
(a: 8.40, c: 7.74, b: 7.36, d: 6.66)

I: CCOc1cc(-c2cc(NCCc3cc4c(cc3OC)OCCO4)ncn2)ccc1OC(C)(C)C(=O)O [Ex 313]
II: CCOc1nc(-c2cc(NCCc3ccc4ccccc4c3C)ncn2)sc1C(=O)O [Example 350]
III: CCOc1cc(-c2cc(NCCc3ccc4c(c3)CCCO4)ncn2)sc1C(=O)O [Ex 56]
IV: CCOc1cc(-c2cc(NCCc3ccc4c(c3)CCS4)ncn2)ccc1C(=O)O [Ex 255]
Task: Hello, I need these entries ordered by pIC50, highest reading first. Thanks! Dear reader, please state the labels in the requested order.
Output: II, III, IV, I
(II: 8.00, III: 7.55, IV: 6.42, I: 6.16)

a: COc1cc2c(cc1CCNc1cc(-c3ccc4c(C(=O)O)c[nH]c4c3)ncn1)OCCO2 [Ex 323]
b: COc1cc2sccc2cc1CCNc1cc(-c2ccc(C(=O)O)c(SC)c2)ncn1 [Ex 18]
Task: Could you kindly indicate whether a or b has the higher pIC50 value? Please indicate the selected item by its label.
Output: b
